- Tested on: EKVX NSCLC
- testProtocol: NCI-60 one-dose screen, 48 h
- measurementConditions: 10 µM unless noted
This is part of a sample that, as a whole, favours compounds with a hit. Of some 83,000 tested, about 20% had one in any assay. Active and inactive are the calls of the source. The calls were made as follows: active = growth percent below 10; inactive = the rest.
Lab note: assign the record to one of true (active), false (inactive)

Known results for compounds:
Cc1cc(C)nc(SC2=C(Nc3cccc(Cl)c3)C(=O)N(Cc3ccccc3)C2=O)n1: false
O=C1NC(=Nc2ccc(O)cc2)S/C1=C\c1cccc(Cl)c1: false
C=C1C(=O)O[C@H]2[C@H]1CC/C(C=Nc1ccc(C(F)(F)F)cc1N)=C\CC[C@@]1(C)O[C@@H]21: false
COC(=O)c1cccc(NC(=O)c2ccc(-c3cccc(N)c3)o2)c1: false
Cn1cc(-c2nonc2-c2c[nH]c3ccc(F)cc23)c2cccnc21: false

Called result for CCN(CC)c1ccc2c(c1)Oc1nc(N)c(C#N)c(N)c1C2Sc1ccc(SC)cc1 (stereo not given) true

Called result for "O=C1CC(=NCC(=O)n2c(-c3ccccc3)nc3ccccc32)NN1" false

Called result for "N#CN1CC[C@H](C(=O)Nc2cc3cc(C(N)=O)ccc3cn2)C1" true

----------
- Tested on: MALME-3M melanoma
- testProtocol: NCI-60 one-dose screen, 48 h
- measurementConditions: 10 µM unless noted
- Protocol: Cells are grown in 96 well plates and exposed to the test compound for 48 hours. Compounds are tested at a single concentration, which is 10^-5 M for most compounds. The reported endpoint is percent growth (GI% or GIPRCNT), where numbers from 0 - 100% represent growth inhibition, and numbers from -100% - 0 represent cell death. For example, a value of 40 represents 60% growth inhibition. A value of 0 means no net growth occurred over the course of the experiment. […]
About 83,000 compounds went through this panel and 20% of them were active in at least one assay; those are over-represented in the sample as a whole. Active and inactive are the calls of the source. How the source made its calls: active means growth percent below 10; inactive means the rest.
Lab note: assign the record to one of active, inactive

Known results for compounds:
CCCN1CCN(c2ccc3nc(-c4ccc5nc(-c6ccc(OCC)cc6)[nH]c5c4)[nH]c3c2)CC1: active
CN(C)c1ccc(N=Nc2ccc(Br)cn2)c(O)c1: inactive
O=C1Nc2c(ccc(Cl)c2Cl)/C1=C\c1cc(C(F)(F)F)cc(C(F)(F)F)c1: active
CCNC(=O)Oc1ccc(/C(=C(\C)c2ccc(Cl)cc2)c2ccc(OCCN3CCCCC3)cc2)cc1: active

Called result for "O=C1c2cc3c(cc2-c2c1c1ccc(F)cc1c(=O)n2C[C@H](O)[C@H](O)[C@H](O)CO)OCO3" active

Called result for "CCNC(=O)Oc1ccc(/C(=C(\C)c2ccc(Cl)cc2)c2ccc(OCCN(CC)CC)cc2)cc1" active

Called result for "NNCCc1ccc(NC(=O)CCCc2ccc(/C=C/C(=O)NO)cc2)cc1" inactive

Called result for "COc1cc2nc(N3CCCC3)nc(NCCc3ccccc3)c2cc1OC" inactive

Called result for Nc1n[nH]c2ccc([C@@H]3Nc4ccc5[nH]ncc5c4[C@H]4C5C=CC(C5)[C@@H]34)cc12 (some centres undefined) inactive

----------
- System: MDA-MB-231 breast
- testProtocol: NCI-60 one-dose screen, 48 h (100 = growth as untreated, 0 = no growth, -100 = all killed)
- measurementConditions: 10 µM unless noted
About 83,000 compounds went through this panel and 20% of them were active in at least one assay; those are over-represented in the sample as a whole.
Below, each of the compounds is paired with its reported growth value.
Please respond with the number in % and leave the unit unwritten.

Solved entries:
CN(C)[C@@H]1C(=O)C(C(=O)NCc2nc3[nH]cnc(=S)c3[nH]2)=C(O)[C@@]2(O)C(=O)C3=C(O)c4c(O)cccc4[C@@](C)(O)[C@H]3C[C@@H]12: 47.5
COC[C@H](C)n1c(C2CCOCC2)nc2cnc3cc(-c4c(C)noc4C)c(OC)cc3c21: 55.4
CCN(CC)S(=O)(=O)c1ccc(OC)c(NC(=O)c2[nH]c(C)c3c2CCCCC3=O)c1: 43
CC(C)n1c(/C=C/[C@@H](O)C[C@@H](O)CC(=O)O)c(-c2ccc(F)cc2)c2ccccc21: 15.7
CC[C@@H]1O[C@H](O[C@@H](c2cnc[nH]2)[C@H](NC(=O)c2nc([C@H](CC(N)=O)NC[C@@H](N)C(N)=O)nc(N)c2C)C(=O)N[C@H](C)[C@H](O)[C@H](C)C(=O)N[C@@H](C(=O)NCCc2nc(-c3nc(C(=O)NCCCCN=C(N)N)cs3)cs2)[C@@H](C)O)[C@H](O[C@@H]2O[C@H](CO)[C@H](O)[C@H](OC(N)=O)[C@@H]2O)[C@H](C)[C@@H]1C: 88.7
COc1ccc(/C=C\c2cc(OC)c(OC)c(OC)c2)cc1OC(=O)c1cccc(Cn2cc(CCOC(=O)[C@H](N)Cc3cn(C)c4ccccc34)nn2)c1: 42.8
CC(C)(C)c1cc(C(C)(C)C)cc(S(=O)(=O)Nc2cc3ccccc3cc2C(=O)NCCN)c1: 5.92
Cc1cc(N2CCN(c3ccnc4cc(Cl)ccc34)CC2)nc(N2CCOCC2)n1: 64.1
O=C(COc1cccc(/C=C2\COc3ccc(Cl)cc3C2=O)c1)c1ccc(Cl)cc1: 67.8
COc1ccc(-c2cc(-c3ccc(Nc4ccnc5cc(Cl)ccc45)cc3)nc(N3CCOCC3)n2)cc1: 52.4

Form field: reported growth of Cc1ccc2c(C(C[N+](=O)[O-])c3ccccc3F)c(-c3ccccc3)[nH]c2c1 (stereo not given) 61.4

Form field: reported growth of "Cc1nn(-c2cc(=O)[nH]c3ccccc23)c(N)c1C#N" 103

Form field: reported growth of "COC(=O)[C@]12CCC(C)(C)C[C@H]1[C@H]1C(=O)C[C@@H]3[C@@]4(C)c5c([nH]c6ccccc6c5=O)C(C)(C)[C@@H]4CC[C@@]3(C)[C@]1(C)CC2" 86.4

Form field: reported growth of "CSc1ccc(-c2n[nH]nc2-c2cc3ccccc3s2)cc1" 41.5

Form field: reported growth of "COc1ccc2c(c1)CC/C(=C\c1cncc(Br)c1)C2=O" 94.5
